Assay: PTH delivery in rats, oral (PO) and intracolonic (IC); serum PTH by radioimmunoassay
Type: in vivo, Sprague-Dawley rats
Details: PO, compound dose 100 mg/kg, PTH (1-34) dose 200 μg/kg
assay endpoint: Mean Peak Serum PTH (pg/mL)

O=C(O)CCCNC(=O)c1ccccc1 [Compound 93]: 343

[I] O=C(O)CCCCCNC(=O)c1ccccc1 [Compound 89]
[II] COc1ccc(C(=O)Nc2ccc(CCCC(=O)O)cc2)c(O)c1 [Compound 104]
Which entry shows the lesser value of Mean Peak Serum PTH here, I or II ? When you have decided, please share the label of that item. I
(I: 27 pg/mL, II: 286.35 pg/mL)

Hello, the source for this data is patent US7744910B2, in case you need it.
